# Test system: Hepatitis C virus
# testName: Antiviral activity against HCV in human Huh7 cells assessed as luciferase activity
# Type: functional, organism-based, Hepacivirus hominis
# testSettings: Huh-7
Attribute: pEC50
Scale explanation: pEC50 corresponds to minus log10 of a concentration expressed in moles per litre.

COc1ccc2c(O[C@@H]3C[C@H]4C(=O)N[C@]5(C(=O)NS(=O)(=O)C6CC6)C[C@H]5/C=C\CCCCN(C)C(=O)[C@@H]4C3)cc(-c3nccs3)nc2c1: 7.96
CCc1c(OC)ccc2c(O[C@@H]3C[C@H]4C(=O)N[C@]5(C(=O)NS(=O)(=O)C6CC6)C[C@H]5/C=C\CCCCN(C)C(=O)[C@@H]4C3)cc(-c3nc(C(C)C)cs3)nc12: 7.18
COc1ccc2c(O[C@@H]3C[C@H]4C(=O)N[C@]5(C(=O)NS(=O)(=O)C6CC6)C[C@H]5/C=C\CCCCN(C)C(=O)[C@@H]4C3)cc(-c3ccccc3)nc2c1: 8.05

Problem: Would you kindly share the measured pEC50 for `COc1ccc2c(O[C@@H]3C[C@H]4C(=O)N[C@]5(C(=O)NS(=O)(=O)C6CC6)C[C@H]5/C=C\CCCCN(C)C(=O)[C@@H]4C3)cc(-c3nc(C(C)C)cs3)nc2c1C` ?
Solution: 8.11

Problem: Would you kindly share the measured pEC50 for `COc1ccc2c(O[C@@H]3C[C@H]4C(=O)N[C@]5(C(=O)NS(=O)(=O)C6CC6)C[C@H]5/C=C\CCCCN(C)C(=O)[C@@H]4C3)cc(-c3nc(C(C)C)cs3)nc2c1Cl` ?
Solution: 8.54

----------
# testName: Oral bioavailability in Sprague-Dawley rat at 10 mg/kg, po
# Assay type: ADME, organism-based
# testSettings: in vivo
readoutName: bioavailability (%)
Hi! Could you send only the number? It should be in %, unit omitted.

Example results:
COc1ccc2c(O[C@@H]3C[C@H]4C(=O)N[C@]5(C(=O)NS(=O)(=O)C6CC6)C[C@H]5/C=C\CCCCN(C)C(=O)[C@@H]4C3)cc(-c3cccc(C(C)C)n3)nc2c1C: 31
COc1ccc2c(O[C@@H]3C[C@H]4C(=O)N[C@]5(C(=O)NS(=O)(=O)C6CC6)C[C@H]5/C=C\CCCCN(C)C(=O)[C@@H]4C3)cc(-n3ccc(C(C)C)n3)nc2c1C: 25

# evaluate next
Problem: Would you kindly share the measured bioavailability for `COc1ccc2c(O[C@@H]3C[C@H]4C(=O)N[C@]5(C(=O)NS(=O)(=O)C6CC6)C[C@H]5/C=C\CCCCN(C)C(=O)[C@@H]4C3)cc(-c3nc(C(C)C)cs3)nc2c1C` ?
Solution: 11

----------
# Tested on: Liver microsomes
# testName: Metabolic stability in rat liver microsomes assessed as intrinsic clearance
# Format: ADME, Microsome
readoutName: clearance (µL/min/mg)
Hi! Could you send only the number? It should be in µL/min/mg, unit omitted.

Problem: Lab note: need clearance for `COc1ccc2c(O[C@@H]3C[C@H]4C(=O)N[C@]5(C(=O)NS(=O)(=O)C6CC6)C[C@H]5/C=C\CCCCN(C)C(=O)[C@@H]4C3)cc(-c3ccccc3)nc2c1` on Liver microsomes, anyone have it?
Solution: 46

----------
# testName: Ratio of drug level in liver to plasma in Sprague-Dawley rat at 2 mg/kg, iv after 8 hrs
# Format: ADME, organism-based
# Parameters: dose 2 mg/kg, route intravenous
readoutName: Kp at 8 h
// return just the number, without any unit appended

Problem: Would you kindly share the measured Kp at 8 h for `COc1ccc2c(O[C@@H]3C[C@H]4C(=O)N[C@]5(C(=O)NS(=O)(=O)C6CC6)C[C@H]5/C=C\CCCCN(C)C(=O)[C@@H]4C3)cc(-n3ccc(C(C)C)n3)nc2c1C` ?
Solution: 23.5
